Source: patent US20070249678A1

# Tested on: Renca cells (renal cell carcinoma)
# method_notes: Effect of the isomers on in vivo tumour growth in mice challenged with Renca cells
# condition_parameters: day 18 after tumour inoculation; 260 ng/mouse i.p. on days 6, 7 and 14; s.c. Renca in Balb/c mice

{"columns": ["molecule", "test_target", "value_unit", "Tumour volume, overall values (Mean)"],
 "data": [
  ["Br.N[C@@]1(C[n+]2ccccc2)C[C@@H](C(=O)O)NC1=O.[Br-] (single isomer, unassigned; isomer 1) [isomer 1]", "Renca cells (renal cell carcinoma)", "mm^3", 174.37],
  ["Br.N[C@]1(C[n+]2ccccc2)C[C@H](C(=O)O)NC1=O.[Br-] (single isomer, unassigned; isomer 4) [isomer 4]", "Renca cells (renal cell carcinoma)", "mm^3", 40.67],
  ["Br.N[C@@]1(C[n+]2ccccc2)C[C@H](C(=O)O)NC1=O.[Br-] (single isomer, unassigned; isomer 2) [isomer 2]", "Renca cells (renal cell carcinoma)", "mm^3", 217.43],
  ["Br.N[C@]1(C[n+]2ccccc2)C[C@@H](C(=O)O)NC1=O.[Br-] (single isomer, unassigned; isomer 3) [isomer 3]", "Renca cells (renal cell carcinoma)", "mm^3", 101.4]
]}
